Where do the numbers come from? From patent US10793568B2.

Reported pEC50 values for the following molecules.
molecular target: ligand binding domain of human FXR (Homo sapiens (Human)); test: FXR ligand binding assay (LanthaScreen TR-FRET, SRC2-2 peptide recruitment); conditions: -log EC50, concentration required to produce 50% activation
Just the number, please, no unit attached.

| record-smiles | tested-on | pEC50 |
| --- | --- | --- |
| O=C(O)c1cc(C2CC3(CCOCC3)C2)c2nc(N3C[C@@H]4C[C@H]3C[C@H]4OCc3c(-c4c(Cl)cccc4Cl)noc3C3CC3)sc2c1 | ligand binding domain of human FXR (Homo sapiens (Human)) | 8.6 |
| N#Cc1cc(N2C[C@@H]3C[C@H]2C[C@H]3OCc2c(-c3c(Cl)cccc3Cl)noc2C2(F)CC2)ccc1C(=O)O | ligand binding domain of human FXR (Homo sapiens (Human)) | 8.6 |
| O=C(O)c1cc(C2CC2)c2nc(N3C[C@@H]4C[C@H]3C[C@H]4OC(=O)c3c(-c4c(Cl)cccc4Cl)noc3C3CC3)sc2c1 | ligand binding domain of human FXR (Homo sapiens (Human)) | 7.3 |
| O=C(O)C1(c2ccc(N3C[C@@H]4C[C@H]3C[C@H]4OCc3c(-c4c(Cl)cccc4Cl)noc3C3CC3)cc2)CCC1 | ligand binding domain of human FXR (Homo sapiens (Human)) | 8.9 |

Data point: Fc1cc(-c2nn[nH]n2)cc2sc(N3C[C@@H]4C[C@H]3C[C@H]4OCc3c(-c4c(Cl)cccc4Cl)noc3C3CC3)nc12 ; pEC50 = 8.4

----------
Biological target: human Farnesoid X receptor ligand-binding domain/Gal4 DNA binding domain chimera (Homo sapiens (Human))
Sequence (Q96RI1 262-486, change not shown): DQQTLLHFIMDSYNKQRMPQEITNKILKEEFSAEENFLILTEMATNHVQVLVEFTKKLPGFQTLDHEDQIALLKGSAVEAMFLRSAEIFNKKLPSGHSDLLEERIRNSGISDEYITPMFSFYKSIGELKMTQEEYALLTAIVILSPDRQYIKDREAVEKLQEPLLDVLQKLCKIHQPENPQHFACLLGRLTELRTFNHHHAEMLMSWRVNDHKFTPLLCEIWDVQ
Sequence (P04386 1-147 partner): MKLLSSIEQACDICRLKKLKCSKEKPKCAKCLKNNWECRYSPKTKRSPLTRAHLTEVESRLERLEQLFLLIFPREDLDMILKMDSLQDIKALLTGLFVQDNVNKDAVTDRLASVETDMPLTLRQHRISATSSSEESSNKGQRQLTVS
Experiment: Cell-based assay of FXR activation (FXR-UAS-bla HEK 293T beta-lactamase reporter)
Settings: cellular FXR beta-lactamase reporter assay, FXR-UAS-bla HEK 293T cells, 16 h; pEC50 = -log EC50
Method: FXR activation was measured using a cell line and procedure obtained from Life Technologies (Cat # K1691). FXR-UAS-bla HEK 293T cells contain a human Farnesoid X receptor ligand-binding domain/Gal4 DNA binding domain chimera stably integrated into the CellSensor® UAS-bla HEK 293T cell line. […] Activation of FXR by bound ligands results in transcriptional activation of the beta-lactamase reporter gene, which is detected via assay of beta-lactamase activity. […]
Reported pEC50 values for the following compounds.
// scale note: pEC50 = -log10(conc_M); give the bare number

Before answering, review these 2 worked examples.
| record-smiles | pEC50 |
| --- | --- |
| N#Cc1cc(N2C[C@@H]3C[C@H]2C[C@H]3OCc2c(-c3c(Cl)cccc3Cl)noc2C2(F)CC2)ccc1C(=O)O | 9.30 |
| O=C(O)c1cc(F)c2nc(N3C[C@H]4C[C@@H]3C[C@@H]4OC(=O)c3c(-c4c(Cl)cccc4Cl)noc3C3CC3)sc2c1 | 6.70 |

Now consider the entry below.
Data point: O=C(O)c1cc(OC2CC2)c2nc(N3C[C@@H]4C[C@H]3C[C@H]4OCc3c(C4CCC5(CC4)CC5)noc3C3CC3)sc2c1 ; pEC50 = 8.00

----------
Reported Emax values for the following compounds.
target: ligand binding domain of human FXR (Homo sapiens (Human), UniProt Q96RI1); test: FXR ligand binding assay (LanthaScreen TR-FRET, SRC2-2 peptide recruitment); conditions: extent of activation relative to GW4064; read-out: % Efficacy
Sequence (Q96RI1 262-486): as the sequence (Q96RI1 262-486, change not shown) above
Kindly answer with a numeric value in %, unit omitted.

Before answering, review these 3 worked examples.
| compound | unit-of-measure | Emax |
| --- | --- | --- |
| O=C(O)c1cnc(N2C(=O)[C@@H]3C[C@H]2C[C@H]3OCc2c(-c3c(Cl)cccc3Cl)noc2C2CC2)cn1 [Compound I-324] | % | 140 |
| O=C(O)c1ccc(N2C[C@@H]3C[C@H]2C[C@H]3OCc2c(-c3c(Cl)cccc3Cl)noc2C2CC2)cn1 [Compound I-128] | % | 110 |
| O=C(O)c1cc(C2CC2)c2nc(N3C(=O)[C@@H]4C[C@H]3C[C@H]4OCc3c(-c4c(Cl)cccc4Cl)noc3C3CC3)sc2c1 [Compound I-295] | % | 98 |

Tested system ligand binding domain of human FXR (Homo sapiens (Human), UniProt Q96RI1); Emax recorded for O=C(O)c1cc(C2CCC2)c2nc(N3C[C@@H]4C[C@H]3C[C@H]4OCc3c(C4CCC5(CC4)CC5)noc3C3CC3)sc2c1 [Compound I-282] was 100

Tested system ligand binding domain of human FXR (Homo sapiens (Human), UniProt Q96RI1); Emax recorded for O=C(NS(=O)(=O)C1CC1)c1ccc(N2C[C@@H]3C[C@H]2C[C@H]3OCc2c(-c3c(Cl)cccc3Cl)noc2C2CC2)cc1F [Compound I-195] was 144

Tested system ligand binding domain of human FXR (Homo sapiens (Human), UniProt Q96RI1); Emax recorded for CCCS(=O)(=O)NC(=O)c1cnc(N2C[C@@H]3C[C@H]2C[C@H]3OCc2c(-c3c(Cl)cccc3Cl)noc2C2CC2)c(F)c1 [Compound I-206] was 159

Tested system ligand binding domain of human FXR (Homo sapiens (Human), UniProt Q96RI1); Emax recorded for N#Cc1cc(CCC(=O)O)ccc1N1C[C@@H]2C[C@H]1C[C@H]2OCc1c(-c2c(Cl)cccc2Cl)noc1C1CC1 [Compound I-158] was 126

Tested system ligand binding domain of human FXR (Homo sapiens (Human), UniProt Q96RI1); Emax recorded for NS(=O)(=O)[C@@H]1CCC[C@H]1OC(=O)c1ccc(N2C(=O)[C@@H]3C[C@H]2C[C@H]3OCc2c(-c3c(Cl)cccc3Cl)noc2C2CC2)cc1 [Compound I-345] was 203

Tested system ligand binding domain of human FXR (Homo sapiens (Human), UniProt Q96RI1); Emax recorded for O=C(O)c1cc([C@@H]2CCOC2)c2nc(N3C[C@@H]4C[C@H]3C[C@H]4OCc3c(C4CCC5(CC4)CC5)noc3C3CC3)sc2c1 [Compound I-281] was 104

Tested system ligand binding domain of human FXR (Homo sapiens (Human), UniProt Q96RI1); Emax recorded for FC(F)(F)Oc1cc(-c2nn[nH]n2)cc2sc(N3C[C@@H]4C[C@H]3C[C@H]4OCc3c(-c4c(Cl)cccc4Cl)noc3C3CC3)nc12 [Compound I-27] was 130

Tested system ligand binding domain of human FXR (Homo sapiens (Human), UniProt Q96RI1); Emax recorded for O=C(NS(=O)(=O)C1CCCC1)c1ncc(N2C(=O)[C@@H]3C[C@H]2C[C@H]3OCc2c(-c3c(Cl)cccc3Cl)noc2C2CC2)cc1F [Compound I-356] was 168

Tested system ligand binding domain of human FXR (Homo sapiens (Human), UniProt Q96RI1); Emax recorded for CC1(C)CC(S(=O)(=O)NC(=O)c2ccc(N3C(=O)[C@@H]4C[C@H]3C[C@H]4OCc3c(-c4c(Cl)cccc4Cl)noc3C3CC3)cc2)CCO1 (stereo partly drawn) [Compound I-329] was 162
